# Study system: Fibroblast growth factor receptor 1 (Homo sapiens) (UniProt P11362)
# Sequence (P11362 22-822 limits assumed): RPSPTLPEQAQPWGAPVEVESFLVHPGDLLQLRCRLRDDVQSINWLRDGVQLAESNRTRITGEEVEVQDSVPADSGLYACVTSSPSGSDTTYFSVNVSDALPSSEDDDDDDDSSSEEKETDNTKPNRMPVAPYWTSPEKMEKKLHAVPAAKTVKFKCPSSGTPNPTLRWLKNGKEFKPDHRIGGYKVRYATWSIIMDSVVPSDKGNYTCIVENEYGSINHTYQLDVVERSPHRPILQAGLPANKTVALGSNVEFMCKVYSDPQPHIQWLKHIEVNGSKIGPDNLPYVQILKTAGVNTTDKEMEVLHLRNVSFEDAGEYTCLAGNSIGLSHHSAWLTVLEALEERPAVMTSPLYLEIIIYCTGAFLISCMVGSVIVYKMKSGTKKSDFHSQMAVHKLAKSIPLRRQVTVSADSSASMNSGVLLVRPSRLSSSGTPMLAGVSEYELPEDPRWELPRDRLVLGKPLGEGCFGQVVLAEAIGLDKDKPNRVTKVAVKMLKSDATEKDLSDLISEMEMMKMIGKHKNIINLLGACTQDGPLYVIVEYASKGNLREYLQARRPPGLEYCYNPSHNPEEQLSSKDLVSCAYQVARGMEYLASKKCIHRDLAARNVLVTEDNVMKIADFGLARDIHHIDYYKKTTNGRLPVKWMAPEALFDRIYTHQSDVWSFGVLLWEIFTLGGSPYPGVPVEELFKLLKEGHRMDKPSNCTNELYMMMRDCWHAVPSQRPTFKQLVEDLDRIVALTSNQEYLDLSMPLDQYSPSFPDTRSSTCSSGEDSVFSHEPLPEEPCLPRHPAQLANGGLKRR
# Method: Percent inhibition against FGFR1 at 10 uM by HTRF method
# Parameters: scale not given: the % may be the effect or the level left
Test readout: Activity

> print(dat)
                                 cpd.smiles  reported.result
1  Cc1ccc(Nc2nnc(-c3c(NCc4ccncc4)ncn3C)o2)c(F)c1            < 30%
2  Cn1cnc(NCc2ccncc2)c1-c1nnc(Nc2ccc(Cl)c(Cl)c2)o1            < 30%
3  COc1ccccc1Nc1nnc(-c2c(NCc3ccncc3)ncn2C)o1            < 30%
4  Cn1cnc(NCc2cccc3ncccc23)c1-c1nnc(Nc2ccc(Cl)cc2)o1            < 30%
5  Cn1cnc(NCc2ccncc2)c1-c1nnc(Nc2ccc(Oc3ccccc3)cc2)o1            < 30%
6  Cn1cnc(NCc2ccncc2)c1-c1nnc(Nc2ccc(OC(F)(F)F)cc2)o1            < 30%

====

Activity: recorded values
# Study system: Cyclin-dependent kinase 5 (Homo sapiens) (UniProt Q00535)
# Sequence (Q00535 whole entry, looked up): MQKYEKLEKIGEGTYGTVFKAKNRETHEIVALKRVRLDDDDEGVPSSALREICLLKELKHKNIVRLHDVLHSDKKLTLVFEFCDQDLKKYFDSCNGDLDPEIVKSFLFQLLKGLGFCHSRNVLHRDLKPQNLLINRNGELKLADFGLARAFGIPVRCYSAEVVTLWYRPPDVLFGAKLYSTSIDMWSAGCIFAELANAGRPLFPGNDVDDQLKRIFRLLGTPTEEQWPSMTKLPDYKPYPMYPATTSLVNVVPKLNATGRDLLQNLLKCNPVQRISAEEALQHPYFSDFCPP
# Method: […] against Cdk5 at 10 uM by HTRF method
Test readout: Activity

> print(dat)
                                 cpd.smiles  reported.result
1  Cn1cnc(NCc2ccncc2)c1-c1nnc(Nc2ccc(C(F)(F)F)cc2)o1            < 30%
2  Cc1ccc(Nc2nnc(-c3c(NCc4ccncc4)ncn3C)o2)c(F)c1            < 30%
3  Cn1cnc(NCc2ccncc2)c1-c1nnc(Nc2ccc(OC(F)(F)Cl)cc2)o1            < 30%
4  COc1ccc(Nc2nnc(-c3c(NCc4ccncc4)ncn3C)o2)cc1OC            < 30%
5  Cn1cnc(NCc2ccccn2)c1-c1nnc(Nc2ccc(Cl)cc2)o1            < 30%
6  Cn1cnc(NCc2ccncc2)c1-c1nnc(Nc2cccc(OC(F)(F)F)c2)o1            < 30%

====

# Study system: Fibroblast growth factor receptor 1 (Homo sapiens)
# Method: Percent inhibition against FGFR1 at 10 uM by HTRF method
# Parameters: scale not given: the % may be the effect or the level left
Activity: recorded values
Test readout: Activity

> print(dat)
                                  cpd.smiles  test.readout  reported.result
 1  Cn1cnc(NCc2ccncc2)c1-c1nnc(Nc2ccc(Br)cc2)o1      Activity            < 30%
 2  Cn1cnc(NCc2ccncc2)c1-c1nnc(Nc2ccc(C(F)(F)F)cc2)o1      Activity            < 30%
 3  Cn1cnc(NCc2ccncc2)c1-c1nnc(Nc2ccc(Cl)c(C(F)(F)F)c2)o1      Activity            < 30%
 4  Cc1ccccc1Nc1nnc(-c2c(NCc3ccncc3)ncn2C)o1      Activity            < 30%
 5  Cn1cnc(NCc2ccccn2)c1-c1nnc(Nc2ccc(Cl)cc2)o1      Activity            < 30%
 6  Cn1cnc(NCCc2ccc3c(c2)OCO3)c1-c1nnc(Nc2ccc(Cl)cc2)o1      Activity            < 30%
 7  Cn1cnc(NCc2ccncc2)c1-c1nnc(NCc2ccc3c(c2)OCO3)o1      Activity            < 30%
 8  Cn1cnc(NCc2ccc(F)c(F)c2)c1-c1nnc(Nc2ccc(Cl)cc2)o1      Activity            < 30%
 9  Cn1cnc(NCc2ccc3[nH]ncc3c2)c1-c1nnc(Nc2ccc(Cl)cc2)o1      Activity            < 30%
10  Cn1cnc(NCc2ccncc2)c1-c1nnc(Nc2ccc(Cc3ccccc3)cc2)o1      Activity            < 30%
11  Cc1cccc(Nc2nnc(-c3c(NCc4ccncc4)ncn3C)o2)c1      Activity            < 30%
12  Cn1cnc(NCc2ccncc2)c1-c1nnc(Nc2ccc(C(C)(C)C)cc2)o1      Activity            < 30%
13  CC(C)c1ccc(Nc2nnc(-c3c(NCc4ccncc4)ncn3C)o2)cc1      Activity            < 30%
14  Cn1cnc(NCc2ccncc2)c1-c1nnc(Nc2ccc(OC(F)(F)Cl)cc2)o1      Activity            < 30%
15  Cn1cnc(NCc2cccnc2)c1-c1nnc(Nc2ccc(Cl)cc2)o1      Activity            < 30%
16  Cn1cnc(NCc2ccncc2)c1-c1nnc(Nc2ccc(Cl)cc2)o1      Activity            < 30%
17  Cn1cnc(NCc2ccncc2)c1-c1nnc(Nc2ccc(-c3ccccc3)cc2)o1      Activity            < 30%
18  Cn1cnc(NCc2ccc3ccccc3n2)c1-c1nnc(Nc2ccc(Cl)cc2)o1      Activity            < 30%
19  Cn1cnc(NCc2ccncc2)c1-c1nnc(Nc2cccc(OC(F)(F)F)c2)o1      Activity            < 30%
20  COc1cccc(Nc2nnc(-c3c(NCc4ccncc4)ncn3C)o2)c1      Activity            < 30%
21  COc1ccc(Nc2nnc(-c3c(NCc4ccncc4)ncn3C)o2)cc1OC      Activity            < 30%

====

# Study system: Receptor tyrosine-protein kinase erbB-2 (Homo sapiens)
# Method: […] against ErbB2 at 10 uM by HTRF method
Activity: recorded values
Test readout: Activity

> print(dat)
                                  cpd.smiles  test.readout  reported.result
 1  Cn1cnc(NCc2ccncc2)c1-c1nnc(Nc2ccc(Br)cc2)o1      Activity            < 30%
 2  Cn1cnc(NCc2ccncc2)c1-c1nnc(Nc2ccc(Cc3ccccc3)cc2)o1      Activity            < 30%
 3  Cn1cnc(NCc2ccncc2)c1-c1nnc(Nc2ccc(OC(F)(F)Cl)cc2)o1      Activity            < 30%
 4  Cn1cnc(NCc2ccncc2)c1-c1nnc(Nc2ccc(Cl)cc2)o1      Activity            < 30%
 5  Cn1cnc(NCCc2ccc3c(c2)OCO3)c1-c1nnc(Nc2ccc(Cl)cc2)o1      Activity            < 30%
 6  Cn1cnc(NCc2ccncc2)c1-c1nnc(Nc2ccc(C(C)(C)C)cc2)o1      Activity            < 30%
 7  Cn1cnc(NCc2ccncc2)c1-c1nnc(Nc2ccc(Cl)c(Cl)c2)o1      Activity            < 30%
 8  Cn1cnc(NCc2ccncc2)c1-c1nnc(Nc2ccc(Oc3ccccc3)cc2)o1      Activity            < 30%
 9  Cn1cnc(NCc2ccccn2)c1-c1nnc(Nc2ccc(Cl)cc2)o1      Activity            < 30%
10  Cc1ccc(Nc2nnc(-c3c(NCc4ccncc4)ncn3C)o2)c(F)c1      Activity            < 30%

====

# Study system: Vascular endothelial growth factor receptor 1 (Homo sapiens)
# Sequence (P17948 whole entry): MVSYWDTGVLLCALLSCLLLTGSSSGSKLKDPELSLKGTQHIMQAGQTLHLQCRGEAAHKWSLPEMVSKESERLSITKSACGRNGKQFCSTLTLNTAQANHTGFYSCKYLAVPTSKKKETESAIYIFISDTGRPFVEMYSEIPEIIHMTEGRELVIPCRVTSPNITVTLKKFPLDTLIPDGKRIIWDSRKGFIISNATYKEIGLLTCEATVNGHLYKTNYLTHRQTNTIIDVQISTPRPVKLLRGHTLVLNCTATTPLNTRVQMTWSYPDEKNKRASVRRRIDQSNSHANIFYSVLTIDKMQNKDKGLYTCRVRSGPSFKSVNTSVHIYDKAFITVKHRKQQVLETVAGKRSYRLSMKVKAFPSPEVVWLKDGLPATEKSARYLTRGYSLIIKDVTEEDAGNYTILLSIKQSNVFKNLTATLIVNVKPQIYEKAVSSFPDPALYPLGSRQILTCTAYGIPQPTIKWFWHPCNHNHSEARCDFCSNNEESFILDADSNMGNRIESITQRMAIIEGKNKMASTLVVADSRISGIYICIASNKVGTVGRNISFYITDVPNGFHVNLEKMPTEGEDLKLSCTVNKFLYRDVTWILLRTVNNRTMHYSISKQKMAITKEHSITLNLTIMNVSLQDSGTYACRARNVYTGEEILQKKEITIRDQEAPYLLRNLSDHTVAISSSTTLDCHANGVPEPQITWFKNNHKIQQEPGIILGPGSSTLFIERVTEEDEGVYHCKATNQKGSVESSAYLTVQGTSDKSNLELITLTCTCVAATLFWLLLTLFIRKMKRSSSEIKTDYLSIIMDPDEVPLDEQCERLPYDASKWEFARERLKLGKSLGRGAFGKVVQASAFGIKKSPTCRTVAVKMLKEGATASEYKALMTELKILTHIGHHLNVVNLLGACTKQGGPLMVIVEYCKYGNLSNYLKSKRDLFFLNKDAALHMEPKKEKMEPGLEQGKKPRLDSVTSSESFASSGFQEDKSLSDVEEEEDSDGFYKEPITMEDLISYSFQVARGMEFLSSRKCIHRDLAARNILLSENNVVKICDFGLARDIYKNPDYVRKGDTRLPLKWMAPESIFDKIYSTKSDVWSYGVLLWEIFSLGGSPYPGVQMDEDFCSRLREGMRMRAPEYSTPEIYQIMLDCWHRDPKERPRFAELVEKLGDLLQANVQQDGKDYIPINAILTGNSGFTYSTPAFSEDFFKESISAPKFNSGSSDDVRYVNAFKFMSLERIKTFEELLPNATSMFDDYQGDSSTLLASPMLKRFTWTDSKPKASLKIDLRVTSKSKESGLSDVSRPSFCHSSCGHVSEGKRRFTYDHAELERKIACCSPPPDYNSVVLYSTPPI
pIC50: −log10 of the molar value.
pIC50: recorded values
Test readout: pIC50

> print(dat)
                                  cpd.smiles  test.readout  comparison.operator  reported.result
 1  Cn1cnc(NCc2ccncc2)c1-c1nnc(Nc2ccc(C(F)(F)F)cc2)o1         pIC50                    =             6.92
 2  Cn1cnc(NCc2ccncc2)c1-c1nnc(Nc2cccc(OC(F)(F)F)c2)o1         pIC50                    =             6.25
 3  Cn1cnc(NCc2ccc(F)c(F)c2)c1-c1nnc(Nc2ccc(Cl)cc2)o1         pIC50                    =             5.48
 4  Cn1cnc(NCCc2ccc3c(c2)OCO3)c1-c1nnc(Nc2ccc(Cl)cc2)o1         pIC50                    =             5.83
 5  Cn1cnc(NCc2ccncc2)c1-c1nnc(Nc2ccc(-c3ccccc3)cc2)o1         pIC50                    <             5.00
 6  Cn1cnc(NCc2ccncc2)c1-c1nnc(Nc2ccc(Br)cc2)o1         pIC50                    =             5.83
 7  Cn1cnc(NCc2ccncc2)c1-c1nnc(Nc2ccc(Cl)c(Cl)c2)o1         pIC50                    =             6.31
 8  Cn1cnc(NCc2cccc3ncccc23)c1-c1nnc(Nc2ccc(Cl)cc2)o1         pIC50                    <             5.00
 9  Cn1cnc(NCc2ccc3ccccc3n2)c1-c1nnc(Nc2ccc(Cl)cc2)o1         pIC50                    <             5.00
10  Cn1cnc(NCc2ccncc2)c1-c1nnc(Nc2ccc(Cl)c(C(F)(F)F)c2)o1         pIC50                    =             6.29
11  Cn1cnc(NCc2ccncc2)c1-c1nnc(Nc2ccc(C(C)(C)C)cc2)o1         pIC50                    =             6.05

Values were extracted from ChEMBL document CHEMBL1139649.
